Reference source for all entries: patent US10047051B2

target: CFTR G551D mutant (Homo sapiens, UniProt P13569, G551D); assay: YFP-halide influx assay for the CFTR-G551D mutation (HEK293 cells); conditions: forskolin 10.67 μM
Sequence (P13569 whole entry G551D): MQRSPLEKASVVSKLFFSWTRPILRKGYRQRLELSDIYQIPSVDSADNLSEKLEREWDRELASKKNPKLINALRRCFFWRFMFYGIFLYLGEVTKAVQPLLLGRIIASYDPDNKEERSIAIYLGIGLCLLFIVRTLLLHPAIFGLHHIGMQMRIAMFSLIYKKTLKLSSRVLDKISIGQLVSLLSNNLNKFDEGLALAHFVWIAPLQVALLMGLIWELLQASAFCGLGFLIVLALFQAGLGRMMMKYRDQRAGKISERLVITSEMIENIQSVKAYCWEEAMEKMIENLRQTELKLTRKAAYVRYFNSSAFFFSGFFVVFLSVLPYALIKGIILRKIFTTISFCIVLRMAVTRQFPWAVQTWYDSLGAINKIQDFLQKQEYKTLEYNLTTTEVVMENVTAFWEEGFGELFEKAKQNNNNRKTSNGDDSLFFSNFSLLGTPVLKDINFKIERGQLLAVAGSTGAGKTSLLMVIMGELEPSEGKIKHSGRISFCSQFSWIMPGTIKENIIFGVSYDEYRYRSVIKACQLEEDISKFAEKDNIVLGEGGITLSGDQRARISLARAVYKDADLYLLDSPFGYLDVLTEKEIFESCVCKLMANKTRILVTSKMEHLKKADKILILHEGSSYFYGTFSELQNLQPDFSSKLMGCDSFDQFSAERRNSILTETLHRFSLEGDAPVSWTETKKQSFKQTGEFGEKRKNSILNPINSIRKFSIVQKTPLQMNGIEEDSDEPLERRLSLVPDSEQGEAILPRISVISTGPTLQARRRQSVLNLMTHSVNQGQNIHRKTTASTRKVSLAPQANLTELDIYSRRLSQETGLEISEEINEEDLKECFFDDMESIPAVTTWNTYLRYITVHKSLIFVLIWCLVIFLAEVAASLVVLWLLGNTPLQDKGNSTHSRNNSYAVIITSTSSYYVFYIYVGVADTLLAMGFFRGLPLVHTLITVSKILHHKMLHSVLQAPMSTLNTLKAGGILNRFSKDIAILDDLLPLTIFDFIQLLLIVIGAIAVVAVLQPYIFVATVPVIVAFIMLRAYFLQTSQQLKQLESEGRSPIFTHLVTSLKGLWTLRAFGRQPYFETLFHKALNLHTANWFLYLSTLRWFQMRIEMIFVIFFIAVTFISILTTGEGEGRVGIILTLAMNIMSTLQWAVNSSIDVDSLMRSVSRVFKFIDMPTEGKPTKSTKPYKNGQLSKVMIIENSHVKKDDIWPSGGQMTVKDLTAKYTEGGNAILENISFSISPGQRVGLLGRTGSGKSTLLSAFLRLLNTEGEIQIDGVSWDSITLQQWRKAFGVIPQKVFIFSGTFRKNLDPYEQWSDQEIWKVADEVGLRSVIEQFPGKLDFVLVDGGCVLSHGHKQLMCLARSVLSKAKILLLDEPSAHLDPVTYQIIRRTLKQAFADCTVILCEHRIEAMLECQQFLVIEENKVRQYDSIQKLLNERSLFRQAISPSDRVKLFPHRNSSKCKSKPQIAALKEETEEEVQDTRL
quantity_measured: EC50 (nM)

The cases that follow already have their EC50 on record.
- compound: "Nc1cc(S(=O)(=O)c2ccc(C(F)(F)F)cc2F)cnc1C(=O)NCCO"
  EC50, nM: 1050
- compound: "Nc1cc(S(=O)(=O)c2ccc(OC(F)(F)F)cc2)cnc1C(=O)NCCC1CC1"
  EC50, nM: 1130
- compound: "CO[C@H]1C[C@H](NC(=O)c2ncc(S(=O)(=O)c3ccc(OC(F)(F)F)cc3)cc2N)C1"
  EC50, nM: 1110
- compound: "Nc1cc(S(=O)(=O)c2ccc(OC(F)(F)F)cc2)cnc1C(=O)N[C@@H]1COC[C@H]1O (racemic)"
  EC50, nM: 839
- compound: "Nc1cc(S(=O)(=O)c2ccc(OC(F)(F)F)cc2)cnc1C(=O)N1CC(F)(F)C1"
  EC50, nM: 656

[I] Nc1cc(S(=O)(=O)N2CCOc3ccccc32)cnc1C(=O)NCC(O)C(F)(F)F (stereo not shown)
[II] Nc1cc(S(=O)(=O)c2ccccc2OC(F)(F)F)cnc1C(=O)N1CC(O)(C(F)(F)F)C1
[III] C[C@H](O)CCNC(=O)c1ncc(S(=O)(=O)c2ccc(OC(F)(F)F)cc2)cc1N
[IV] Nc1cc(S(=O)(=O)c2ccc(C(F)(F)F)cc2)cnc1C(=O)NCC(F)(F)CO
[V] COCC(O)CNC(=O)c1ncc(S(=O)(=O)c2ccc(OC(F)(F)F)cc2F)cc1N (stereo not shown)
Please give the order of these compounds when sorted by EC50, largest value leading. Labels, requested order.
III, V, IV, I, II

----------
target: CFTR ΔF508 mutant (Homo sapiens, UniProt P13569, DEL508-508); construct: expressed in transfected cells; host or cells: CFBE41o- cells, adenoviral transduction; test: YFP-halide influx assay for the CFTR-ΔF508 mutation (CFBE41o- cells); format: cell-based; conditions: forskolin 10.67 μM
Sequence (P13569 with tags, fused parts or gaps DEL508-508): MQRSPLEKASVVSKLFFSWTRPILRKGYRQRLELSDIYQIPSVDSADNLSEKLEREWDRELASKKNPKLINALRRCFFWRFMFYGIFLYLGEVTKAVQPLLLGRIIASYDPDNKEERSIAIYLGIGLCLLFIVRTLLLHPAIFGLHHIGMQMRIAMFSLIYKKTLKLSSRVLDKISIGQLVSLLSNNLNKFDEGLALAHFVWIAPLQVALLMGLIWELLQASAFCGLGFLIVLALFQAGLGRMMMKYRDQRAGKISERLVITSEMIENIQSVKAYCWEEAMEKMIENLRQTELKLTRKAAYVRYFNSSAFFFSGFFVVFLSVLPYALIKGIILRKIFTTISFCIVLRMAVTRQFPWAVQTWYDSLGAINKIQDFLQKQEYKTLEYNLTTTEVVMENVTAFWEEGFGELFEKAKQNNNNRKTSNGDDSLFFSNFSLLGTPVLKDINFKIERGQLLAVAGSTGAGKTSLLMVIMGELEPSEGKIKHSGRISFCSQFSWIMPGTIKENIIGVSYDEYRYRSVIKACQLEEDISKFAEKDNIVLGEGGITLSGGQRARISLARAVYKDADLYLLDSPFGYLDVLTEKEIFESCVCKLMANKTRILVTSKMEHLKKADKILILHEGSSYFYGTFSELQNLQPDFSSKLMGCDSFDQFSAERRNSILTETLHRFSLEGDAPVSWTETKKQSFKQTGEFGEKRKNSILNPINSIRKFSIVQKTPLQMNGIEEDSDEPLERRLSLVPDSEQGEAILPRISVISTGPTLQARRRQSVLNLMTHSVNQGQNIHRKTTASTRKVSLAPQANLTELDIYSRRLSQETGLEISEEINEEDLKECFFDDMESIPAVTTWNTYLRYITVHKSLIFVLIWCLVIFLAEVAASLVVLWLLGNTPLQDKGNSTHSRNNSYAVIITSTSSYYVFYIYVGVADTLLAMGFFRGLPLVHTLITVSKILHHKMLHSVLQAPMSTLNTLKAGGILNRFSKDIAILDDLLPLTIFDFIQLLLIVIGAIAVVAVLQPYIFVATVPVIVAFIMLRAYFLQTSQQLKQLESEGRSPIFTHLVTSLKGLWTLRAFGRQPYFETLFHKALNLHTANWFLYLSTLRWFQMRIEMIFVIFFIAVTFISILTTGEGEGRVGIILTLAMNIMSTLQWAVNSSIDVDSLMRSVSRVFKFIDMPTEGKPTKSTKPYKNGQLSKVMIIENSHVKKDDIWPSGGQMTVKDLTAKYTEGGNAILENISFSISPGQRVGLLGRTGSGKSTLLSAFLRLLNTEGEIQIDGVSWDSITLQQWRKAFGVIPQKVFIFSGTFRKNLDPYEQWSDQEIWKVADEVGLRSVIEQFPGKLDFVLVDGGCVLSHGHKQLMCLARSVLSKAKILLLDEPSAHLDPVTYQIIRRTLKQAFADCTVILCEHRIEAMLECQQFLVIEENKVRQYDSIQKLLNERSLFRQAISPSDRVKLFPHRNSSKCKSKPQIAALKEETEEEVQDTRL
quantity_measured: % Activation (%)

- compound: "Nc1cc(S(=O)(=O)N2CCOc3ccccc32)cnc1C(=O)NCC(O)C(F)(F)F (stereo not shown) [Compound 109]"
  recorded_number: 104.0
- compound: "CC(C)[C@@H](CO)NC(=O)c1ncc(S(=O)(=O)c2ccc(OC(F)(F)F)cc2)cc1N [Compound 148]"
  recorded_number: 88.8
- compound: "CC[C@@H](CO)NC(=O)c1ncc(S(=O)(=O)c2ccc(OC(F)(F)F)cc2)cc1N [Compound 142]"
  recorded_number: 97.9
- compound: "CC(C)NC(=O)CNC(=O)c1ncc(S(=O)(=O)c2ccc(OC(F)(F)F)cc2F)cc1N [Compound 135]"
  recorded_number: 108.7
- compound: "CO[C@H]1C[C@H](NC(=O)c2ncc(S(=O)(=O)c3ccc(OC(F)(F)F)cc3)cc2N)C1 [Compound 120]"
  recorded_number: 96.5
- compound: "Nc1cc(S(=O)(=O)c2ccc(OC(F)(F)F)cc2)cnc1C(=O)N[C@H]1CCOC1 [Compound 144]"
  recorded_number: 92.6
- compound: "COCC(O)CNC(=O)c1ncc(S(=O)(=O)c2ccc(OC(F)(F)F)cc2F)cc1N (stereo not shown) [Compound 71]"
  recorded_number: 108.0
- compound: "Nc1cc(S(=O)(=O)c2ccc(OC(F)(F)F)cc2)cnc1C(=O)NCC(O)C(F)(F)F (stereo not shown) [Compound 6]"
  recorded_number: 114.0
- compound: "C[C@H](O)CNC(=O)c1nc(NC2CC2)c(S(=O)(=O)c2ccc(OC(F)(F)F)cc2)cc1N [Compound 285]"
  recorded_number: 86.7
- compound: "Nc1cc(S(=O)(=O)c2ccc(OC(F)(F)F)cc2)cnc1C(=O)N1CC[C@@H](F)C1 [Compound 204]"
  recorded_number: 92.5
- compound: "CCNC(=O)C(C)NC(=O)c1ncc(S(=O)(=O)c2ccc(OC(F)(F)F)cc2)cc1N (stereo not shown) [Compound 43]"
  recorded_number: 92.6
- compound: "C[C@@H]1CCCN1S(=O)(=O)c1cnc(C(=O)NCC(O)C(F)(F)F)c(N)c1 (stereo partly shown) [Compound 179]"
  recorded_number: 100.4
- compound: "Nc1cc(S(=O)(=O)c2ccc(OC(F)(F)F)cc2)cnc1C(=O)N[C@@H]1COCC[C@@H]1O (racemic) [Compound 33]"
  recorded_number: 98.6
- compound: "CC(C)(C)c1ccc(S(=O)(=O)c2cnc(C(=O)NCC(O)C(F)(F)F)c(N)c2)cc1 (stereo not shown) [Compound 247]"
  recorded_number: 114.5
- compound: "CC[C@@H](CO)NC(=O)c1ncc(S(=O)(=O)c2ccc(C(F)(F)F)cc2)cc1N [Compound 234]"
  recorded_number: 102.4
- compound: "Nc1cc(S(=O)(=O)c2ccc(OC(F)(F)F)cc2F)cnc1C(=O)N1CC(O)(C(F)(F)F)C1 [Compound 173]"
  recorded_number: 98.3
- compound: "CC(C)(O)C1CN(C(=O)c2ncc(S(=O)(=O)c3ccc(C(F)(F)F)cc3F)cc2N)C1 [Compound 178]"
  recorded_number: 109.7
- compound: "Nc1cc(S(=O)(=O)c2ccc(C(F)(F)F)cc2)cnc1C(=O)NCCOC(F)(F)F [Compound 240]"
  recorded_number: 98.1
- compound: "Nc1cc(S(=O)(=O)c2ccc(OC(F)(F)F)cc2)cnc1C(=O)NC1CCOCC1 [Compound 146]"
  recorded_number: 88.4
- compound: "Nc1cc(S(=O)(=O)N2CCCC(F)(F)C2)cnc1C(=O)NCC(O)C(F)(F)F (stereo not shown) [Compound 183]"
  recorded_number: 103.7
- compound: "Nc1cc(S(=O)(=O)c2ccc(OC(F)(F)F)cc2)cnc1C(=O)NCC1(CO)CCC1 [Compound 23]"
  recorded_number: 103.9
- compound: "Nc1cc(S(=O)(=O)c2ccc(C(F)(F)F)cc2F)cnc1C(=O)NCC(O)COCC1CC1 (stereo not shown) [Compound 132]"
  recorded_number: 103.5
- compound: "CC(C)CC(O)CNC(=O)c1ncc(S(=O)(=O)c2ccc(OC(F)(F)F)cc2)cc1N (stereo not shown) [Compound 87]"
  recorded_number: 102.0
- compound: "Nc1cc(S(=O)(=O)c2ccc(C(F)(F)F)cc2F)cnc1C(=O)N1CC(O)(C(F)(F)F)C1 [Compound 112]"
  recorded_number: 100.6
- compound: "CC(C)(O)CCNC(=O)c1ncc(S(=O)(=O)c2ccc(OC(F)(F)F)cc2)cc1N [Compound 51]"
  recorded_number: 96.8
- compound: "Nc1cc(S(=O)(=O)N2CC(F)(F)C2)cnc1C(=O)NCC(O)C(F)(F)F (stereo not shown) [Compound 97]"
  recorded_number: 92.9
- compound: "Nc1cc(S(=O)(=O)c2ccc(OC(F)(F)F)cc2)cnc1C(=O)N[C@@H]1CCOC1 [Compound 128]"
  recorded_number: 95.0
- compound: "Nc1cc(S(=O)(=O)c2ccc(OC(F)(F)F)cc2F)cnc1C(=O)NCC(O)COCC1CC1 (stereo not shown) [Compound 169]"
  recorded_number: 95.5
- compound: "C[C@H](O)CNC(=O)c1nc(-c2ccc(F)cc2)c(S(=O)(=O)C2CCCC2)cc1N [Compound 261]"
  recorded_number: 87.3
- compound: "CC(C)C[C@H](NC(=O)c1ncc(S(=O)(=O)c2ccc(OC(F)(F)F)cc2)cc1N)C(N)=O [Compound 56]"
  recorded_number: 99.4
- compound: "COc1ccc(C(CO)NC(=O)c2ncc(S(=O)(=O)c3ccc(OC(F)(F)F)cc3)cc2N)cc1 (stereo not shown) [Compound 96]"
  recorded_number: 105.0
